Tested on: DU-145 prostate
Experiment: NCI-60 one-dose screen, 48 h (100 = growth as untreated, 0 = no growth, -100 = all killed)
Run Conditions: 10 µM unless noted
Compounds without any hit were thinned out: in the full panel of roughly 83,000, 20% have a hit.
Assay Metric: growth (%)
Just the number please, in %, no unit attached.

Below are worked cases with known answers.
Cn1cc(-c2cc(N)n3nc(-c4cn(C)c5ccc(Cl)cc45)cc3n2)c2cc(Cl)ccc21 ... 71.4
O=C(CCN1C(=O)/C(=C/c2ccccc2F)SC1=S)N1CCOCC1 ... 57.5

Consider the compound COC(=O)C1CCCN(S(=O)(=O)/N=C2\NC(=O)NC2=C(Cl)Cl)C1 (stereo not given) . State its measured growth.
112

Retrieve growth measured for O=C(CN1C(=O)/C(=C/c2ccccc2)SC1=S)N1CCOCC1 and print it.
103

Quick one: give measured growth for COc1cc2nc(-c3ccc(C)cc3)cc(OCCCNCC3CCCO3)c2cc1OC (stereo not given)
60

====

Tested on: SK-MEL-5 melanoma
Experiment: NCI-60 one-dose screen, 48 h (100 = growth as untreated, 0 = no growth, -100 = all killed)
Run Conditions: 10 µM unless noted
Experimental: Growth inhibition of the SK-MEL-5 human tumor cell line is measured as a screen for anti-cancer activity. Cells are grown in 96 well plates and exposed to the test compound for 48 hours. Compounds are tested at a single concentration, which is 10^-5 M for most compounds. The reported endpoint is percent growth (GI% or GIPRCNT), where numbers from 0 - 100% represent growth inhibition, and numbers from -100% - 0 represent cell death. For example, a value of 40 represents 60% growth inhibition. […]
About 83,000 compounds went through this panel and 20% of them were active in at least one assay; those are over-represented in the sample as a whole.
Assay Metric: growth (%)
Numbers only; they are read as %.

// solved cases for growth follow
COc1cc(/C=C/C(=O)c2ccccc2)ccc1Oc1nc(NCCO)nc(N2CCOCC2)n1 ... 99.3
COc1ccc(NC(=O)c2sc3nc(-c4cnccn4)cc(-c4cccs4)c3c2N)cc1 ... 59.4
CC(C)(C)Nc1nc2c(OCCc3ccccc3)cccn2c1-c1ccccc1Cl ... -92.5
NS(=O)(=O)c1cccc(Nc2nc(SCC(=O)c3ccc([N+](=O)[O-])cc3)nc3ccccc23)c1 ... 7.52
CCCSc1nc(Nc2ccc(/C(C)=N\NC(N)=S)cc2)c(C#N)c(-c2ccc(OC)cc2)n1 ... 58.2
COc1cc(-c2ccc3ncnc(NC(C)c4ccccc4)c3c2)cnc1OC (centres undefined) ... 74.4
CCOC(=O)c1csc(NC(=O)CSc2nc3sc4c(c3c(=O)n2-c2ccc(Cl)cc2)CCCC4)n1 ... 78
OC1CCN(CCCOc2c3ccccc3nc3c2oc2ccccc23)CC1 ... -69.1

Recall and state the measured growth for O=C(CSc1nnc(-c2ccc3nc(-c4ccc(Cl)cc4)[nH]c3c2)o1)Nc1ccc(C(=O)/C=C/c2ccc(Cl)cc2)cc1 .
93.7

====

Recorded growth for the following compounds
Test system: MDA-MB-231 breast
Experiment: NCI-60 one-dose screen, 48 h (100 = growth as untreated, 0 = no growth, -100 = all killed)
Run Conditions: 10 µM unless noted
The panel holds about 83,000 compounds, 20% with a hit somewhere; the sample as a whole holds those more often. Activity calls are given as the source filed them. How the source made its calls: active means growth percent below 10; inactive means the rest.

Observe how each entry below is paired with its result.
CCN1C(=S)N(c2ccccc2)C2NC(=O)N(/N=C/C=C/c3ccccc3OC)C21 (configuration not stated) ... 71.9% (inactive)
CCOC(=O)c1c(Nc2ccccc2)nn2c(N)c(C#N)c(-c3ccccc3)nc12 ... 63.9% (inactive)
NS(=O)(=O)c1ccc(Nc2nc(Nc3ccccc3)nc(-n3nc(-c4ccccc4)cc3-c3ccccc3)n2)cc1 ... 37% (inactive)
C#Cc1nc(C2=C(C)C(=O)/C(=N/OC(C)=O)C2)cs1 ... 30.3% (inactive)
CCN1C(=S)N(CC)C2C1NN=C1SC(c3ccccc3)=CC(=O)N12 (configuration not stated) ... 94% (inactive)
CC(O)C(NC(=O)C1CCCN1C(=O)CNC(=O)C1CC(=O)NCC(=O)NC(Cc2c[nH]c3ccccc23)C(=O)NC(Cc2ccc(O)cc2)C(=O)NCC(=O)NC(CO)C(=O)NC(CCC(N)=O)C(=O)NC(Cc2c[nH]c3ccccc23)C(=O)N1)C(=O)NCC(=O)NC(CCC(N)=O)C(=O)NC(CCCNC(=N)N)C(=O)NC(CC(=O)O)C(=O)O (configuration not stated) ... 98.6% (inactive)

// switching to the query compound
Please indicate recorded growth of N=C1CC(=O)NN1C(=O)CSc1nc2sc3c(c2c(=O)n1-c1ccc(Cl)cc1)CCCC3 measured with MDA-MB-231 breast.
87.7% (inactive)

====

Test system: UO-31 renal
Experiment: NCI-60 one-dose screen, 48 h
Run Conditions: 10 µM unless noted
About 83,000 compounds went through this panel and 20% of them were active in at least one assay; those are over-represented in the sample as a whole. Calls of active or inactive are those of the source. The calls were made as follows: active = growth percent below 10; inactive = the rest.
Outcome (select one): class 1 (active), class 0 (inactive)

Completed entries (count: 4):
COc1ccc2[nH]cc(-c3cc(N)n4nc(-c5c[nH]c6ccc(OC)cc56)cc4n3)c2c1 ... class 1
CCOC(=O)c1c(NC(=O)c2cccc(C(F)(F)F)c2)sc2cc(O)ccc12 ... class 0
COc1cc2nc(-c3ccc(Cl)cc3)cc(OCCCNCC3CCCO3)c2cc1OC (stereo not given) ... class 0
O=C(CSc1nccc(=O)[nH]1)Nc1ccc(-c2nc3ccccc3[nH]2)cc1 ... class 0

Turning now to a further record.
Write down the call the test reported for this compound. Item: N#Cc1c(-c2ccc(Cl)cc2)nc2c(-c3ccccc3)c(Nc3ccccc3)nn2c1N
class 0

====

System: UO-31 renal
Experiment: NCI-60 one-dose screen, 48 h (100 = growth as untreated, 0 = no growth, -100 = all killed)
Run Conditions: 10 µM unless noted
About 83,000 compounds went through this panel and 20% of them were active in at least one assay; those are over-represented in the sample as a whole.
Values of growth greater than or equal to 30% map to 1; values below map to 0.

Worked set:
Cc1cccc2sc(/N=C(\N)C(Cl)(Cl)Cl)nc12 ... 1
Cc1[nH]nc2ncc(C#Cc3cncc(C(=O)Nc4ccc(CN5CCN(C)CC5)c(C(F)(F)F)c4)c3)cc12 ... 0
CCCSc1nc(Nc2ccc(/C(C)=N\NC(N)=S)cc2)c(C#N)c(-c2ccc(OC)cc2)n1 ... 0

Query compound follows.
Does COc1ccc(NC(=O)c2sc3nc(-c4cnccn4)cc(-c4cccs4)c3c2N)cc1 have a reported growth of at least 30%?
1

====

System: HCT-116 colon
Experiment: NCI-60 one-dose screen, 48 h
Run Conditions: 10 µM unless noted
Compounds without any hit were thinned out: in the full panel of roughly 83,000, 20% have a hit. Calls of active or inactive are those of the source. The calls were made as follows: active = growth percent below 10; inactive = the rest.
In this exercise, the only acceptable responses are class 1 for active, class 0 for inactive

Record excerpt, results attached:
COc1cc(OC)c(S(=O)(=O)NNC(=O)c2ccncc2)cc1C(=O)/C=C/c1ccc(C)cc1 ... class 1
COc1cc(/C=C/C(=O)c2ccccc2)ccc1Oc1nc(NCCO)nc(N2CCOCC2)n1 ... class 0
Cn1ccnc1C(=O)/C=C/c1ccc(NC(=O)Nc2ccc(F)cc2)cc1 ... class 0

Okay, now this compound:
Which result was noted for this compound in the test: Cc1cc(=O)oc2cc(OCCCOc3ccc(/C=C/C(=O)Nc4ccc(Cl)cc4)cc3)ccc12
class 0

====

growth reference
Test system: TK-10 renal
Experiment: NCI-60 one-dose screen, 48 h (100 = growth as untreated, 0 = no growth, -100 = all killed)
Run Conditions: 10 µM unless noted
About 83,000 compounds went through this panel and 20% of them were active in at least one assay; those are over-represented in the sample as a whole. Activity calls are given as the source filed them. Rule for the calls: active = growth percent below 10; inactive = the rest.

Example entries begin here.
CCN1CCN(/C(=N\c2sc(-c3ccccc3)nc2-c2ccccc2)c2ccccc2)CC1 ... 94.1% (inactive)
CCOC(=O)c1c(NC(=O)c2cccc(C(F)(F)F)c2)sc2cc(O)ccc12 ... 183% (inactive)
CCOc1ccc([C@H]2C(C(=O)c3ccc(Cl)cc3)C3(N[C@@H]2c2ccccc2)C(=O)Nc2ccc(Br)cc23)cc1 (stereo partly drawn) ... 53.4% (inactive)
Nc1cc(-c2c[nH]c3ccc(Cl)cc23)nc2cc(-c3c[nH]c4ccc(Cl)cc34)nn12 ... 66.2% (inactive)
Cc1ccc(-c2nc(C(Cl)Cl)nc3cc(-c4ccccc4)nn23)cc1 ... 23.7% (inactive)

Query growth for CCN(CC)c1ccc(C=O)c(OCc2cn(CC(=O)Nc3ccc(Cl)cc3)nn2)c1
83.8% (inactive)

Respond only with growth recorded for C=C1CC[C@H]2[C@@](C)(CCC3OC(c4ccc(OCc5cn(C6CC(OC(C)=O)C(OC(C)=O)C(COC(C)=O)O6)nn5)cc4)OC[C@]32C)[C@@H]1/C=C/C1=CCOC1=O (stereo partly drawn)
119% (inactive)

For NS(=O)(=O)c1cccc(Nc2nc(SCC(=O)c3ccc([N+](=O)[O-])cc3)nc3ccccc23)c1 , write its growth.
95.6% (inactive)
